Biological target: T1, Recombinant Human IL-23 (human, UniProt Q9NPF7 20-189; P29460 23-328)
T1 construct: Recombinant human IL-23; the p40 subunit is added from general knowledge of the heterodimer; also called hIL-23
T1 sequence (looked up) 1: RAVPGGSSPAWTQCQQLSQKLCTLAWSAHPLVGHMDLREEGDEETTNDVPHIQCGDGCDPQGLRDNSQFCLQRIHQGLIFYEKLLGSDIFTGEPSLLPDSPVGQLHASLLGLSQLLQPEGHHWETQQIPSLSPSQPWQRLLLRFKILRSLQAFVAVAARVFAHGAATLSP
T1 sequence (looked up) 2: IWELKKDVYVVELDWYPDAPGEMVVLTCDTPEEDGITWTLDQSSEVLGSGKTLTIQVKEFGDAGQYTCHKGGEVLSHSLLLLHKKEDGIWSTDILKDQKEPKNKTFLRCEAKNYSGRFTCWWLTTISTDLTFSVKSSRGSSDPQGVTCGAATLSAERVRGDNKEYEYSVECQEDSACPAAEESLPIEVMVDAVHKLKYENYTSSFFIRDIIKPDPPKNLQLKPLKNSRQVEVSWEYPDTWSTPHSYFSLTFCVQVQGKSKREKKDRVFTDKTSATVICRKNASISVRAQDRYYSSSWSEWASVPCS
Test: SPR (Biacore 8K), mAb captured on anti-human IgG, hIL-23 as analyte, 25 °C
Endpoint label: kon (M⁻¹ s⁻¹)
Response body: numeric value in M⁻¹ s⁻¹, unit text excluded.

Form field: reported kon of Clone MAb002 (antibody, human IgG1, kappa, L234A L235A, V domains shown, Described as an extended half-life humanized IgG1 monoclonal antibody) VH: EVQLLESGGGLVQPGGSLRLSCAASGYTFTDQTIHWVRQAPGKGLEWIGYIYPRDDSPKYNENFKGRATLSADNSKNTAYLQMNSLRAEDTAVYYCAIPDRSGYAWFIYWGQGTTVTVSS VL: EIVMTQSPATLSVSPGERATLSCKASRDVAIAVAWYQQKPGQAPRLLLFWASTRHTGIPARFSGSGSRTEFTLTISSLQSEDFAVYYCHQYSSYPFTFGGGTKVEIKR
266000
